The measurements presented in this section are drawn from PubChem BioAssay (NCI).

- Tested on: 786-0 renal
- method.notes: NCI tumour cell line growth inhibition, 48 h
outcome.measure: GI50

{"compound": "COC(=O)c1cc(NC(=O)CN(CCN(CC(=O)O)CC(=O)Nc2ccc(O)c(C(=O)OC)c2)CC(=O)O)ccc1O", "recorded.value": "35.2 µM"}
{"compound": "CCC[CH2][Ge]([CH2]CCC)([CH2]CCC)[O]C(=O)C(OC(C)=O)c1ccccc1 (stereo not given)", "recorded.value": "6.34 µM"}
{"compound": "O=C1C(Cl)=C(Nc2ccccn2)C(=O)c2ccccc21", "recorded.value": "13.1 µM"}
{"compound": "C=CCCC(O)c1ccc(CCCCCCCCCCC)o1 (stereo not given)", "recorded.value": "16.3 µM"}
{"compound": "COCO[C@@H]1CC2C=Nc3cc(OCc4ccccc4)c(OC)cc3C(=O)N2C1 (stereo not given in full)", "recorded.value": "1.3 µM"}
{"compound": "CCCC(=O)Nc1ncnc2c1ncn2C1OC2COP(=O)(O)OC2C1OC(=O)CCC (stereo not given)", "recorded.value": "> 1000 µM"}
{"compound": "O=C(c1ccncc1)N1CCN(C2=NS(=O)(=O)c3ccccc3N2c2ccccc2)CC1", "recorded.value": "7.37 µM"}
{"compound": "O=C1C(Cl)=C(Nc2cccc(O)c2)C(=O)N1c1ccc(Cl)cc1Cl", "recorded.value": "32.8 µM"}
{"compound": "[O]=[W](=[O])([OH])[OH]", "recorded.value": "> 100 µM"}
{"compound": "Cc1cn2c(/C=N/N=C(N)N)c(-c3cc(Cl)sc3Cl)nc2s1", "recorded.value": "0.887 µM"}

====

- Tested on: CAKI-1 renal
- method.notes: NCI tumour cell line growth inhibition, 48 h
Measured TGI, listed per entry.
outcome.measure: TGI

{"compound": "CSC1CC2C(CC1(C)SC)C2(C)C (stereo unspecified)", "outcome.measure": "TGI", "recorded.value": "> 100 µM"}
{"compound": "CCCCC/C=C\\C/C=C/CCCCCCCCNC(=O)Nc1ccc([N+](=O)[O-])cc1", "outcome.measure": "TGI", "recorded.value": "> 100 µM"}
{"compound": "C=CCCC(O)c1ccc(CCCCCCCCCCC)o1 (stereo unspecified)", "outcome.measure": "TGI", "recorded.value": "31.5 µM"}
{"compound": "Cc1nn(-c2ccccc2)c(C)c1/C=N/N1CCN(Cc2ccccc2)CC1", "outcome.measure": "TGI", "recorded.value": "> 100 µM"}
{"compound": "CC(C)N(C(=O)C12C3C4C5C3C1(C#N)C5C42)C(C)C (stereo unspecified)", "outcome.measure": "TGI", "recorded.value": "> 100 µM"}
{"compound": "O=C(NCCCCCCNC(=O)NC1OCC(O)C(O)C1O)NC1OCC(O)C(O)C1O (stereo unspecified)", "outcome.measure": "TGI", "recorded.value": "> 100 µM"}
{"compound": "CCOC(=O)NN(C(=O)OCC)C(C(=O)c1ccc(Cl)cc1)=C1NCCN1", "outcome.measure": "TGI", "recorded.value": "> 100 µM"}
{"compound": "Cc1ccc(S(=O)(=O)c2ccsc2NC(=O)c2ccccc2)cc1", "outcome.measure": "TGI", "recorded.value": "97.4 µM"}
{"compound": "CC1=C2c3ccccc3N(S(=O)(=O)c3ccccc3)[C@H]2[C@H](C(=O)N2C3CC4CC[C@@]3(CS2(=O)=O)C4(C)C)CC1 (stereo partly specified)", "outcome.measure": "TGI", "recorded.value": "> 100 µM"}
{"compound": "Cc1cc(O)c(O)c(Oc2cc(C)cc(O)c2O)c1", "outcome.measure": "TGI", "recorded.value": "> 100 µM"}
{"compound": "CC(=O)[C@]1(C)[C@H](C)O[C@](C)(CO)[C@H]1O[Si](C)(C)c1ccccc1", "outcome.measure": "TGI", "recorded.value": "54.2 µM"}

====

Measured TGI, listed per entry.
- Tested on: OVCAR-4 ovarian
- method.notes: NCI tumour cell line growth inhibition, 48 h

{"compound": "Cc1ccc(Nc2cc(=O)[nH]c(=O)[nH]2)cc1CS", "test.target": "OVCAR-4 ovarian", "TGI": "> 100 µM"}
{"compound": "O=C1CCCCCCCCCCC1CN(Cc1ccccc1)Cc1ccccc1 (stereo unspecified)", "test.target": "OVCAR-4 ovarian", "TGI": "> 100 µM"}
{"compound": "O=[N+]([O-])c1ccc(NN=C2c3ccccc3Cc3ccccc32)c([N+](=O)[O-])c1", "test.target": "OVCAR-4 ovarian", "TGI": "> 100 µM"}
{"compound": "CN/N=C(/CC(=O)c1sc(-n2nc(-c3ccccc3)cc2-c2ccccc2)nc1C)C(=O)Nc1ccc(Cl)c(Cl)c1", "test.target": "OVCAR-4 ovarian", "TGI": "> 100 µM"}
{"compound": "CCOc1ccc(N=Nc2c(-c3ccccc3)nn(C(=O)CC(=O)Nc3cccc(C)c3)c2-c2ccccc2)cc1", "test.target": "OVCAR-4 ovarian", "TGI": "> 100 µM"}
{"compound": "COC(=O)CCSC1=CC(=O)c2nc3ccccc3c3ccnc1c23", "test.target": "OVCAR-4 ovarian", "TGI": "41.9 µM"}
{"compound": "CNC(=O)OCc1cc2ccncc2c2c1[nH]c1ccccc12", "test.target": "OVCAR-4 ovarian", "TGI": "> 100 µM"}
{"compound": "C[CH2][Sn]([Cl])([CH2]C)[CH2]C", "test.target": "OVCAR-4 ovarian", "TGI": "11 µM"}
{"compound": "COc1cc2c(cc1OC)C1(c3ccccc3)ON=C(c3ccccc3)N1CS2 (stereo unspecified)", "test.target": "OVCAR-4 ovarian", "TGI": "> 100 µM"}
{"compound": "CCCC(=O)Nc1ncnc2c1ncn2C1OC2COP(=O)(O)OC2C1OC(=O)CCC (stereo unspecified)", "test.target": "OVCAR-4 ovarian", "TGI": "> 1000 µM"}
{"compound": "O=C(NCCCCCCNC(=O)NC1OCC(O)C(O)C1O)NC1OCC(O)C(O)C1O (stereo unspecified)", "test.target": "OVCAR-4 ovarian", "TGI": "> 100 µM"}
{"compound": "C/C=C/C=C\\C(=O)C1c2cccc(O)c2C(=O)c2c(O)cc(C)cc21 (stereo unspecified)", "test.target": "OVCAR-4 ovarian", "TGI": "3.3 µM"}
{"compound": "Cc1ccc(C)c(N2C(=O)C(=O)c3c(C)ccc(C)c32)c1", "test.target": "OVCAR-4 ovarian", "TGI": "> 100 µM"}
{"compound": "CC(C)N(C(=O)c1ccc(NCc2cc(O)ccc2O)cc1)C(C)C", "test.target": "OVCAR-4 ovarian", "TGI": "28.3 µM"}
{"compound": "O=C(Nn1c(-c2ccccc2)nc2ccccc2c1=O)c1ccc(O)cc1", "test.target": "OVCAR-4 ovarian", "TGI": "> 100 µM"}
{"compound": "CCCCCCCCCCCCCCC[C@@H](O)C[N+](C)(C)CCO", "test.target": "OVCAR-4 ovarian", "TGI": "22.9 µM"}
{"compound": "Cc1cn(C2CC(N=[N+]=[N-])C(C(=O)O)O2)c(=O)[nH]c1=O (stereo unspecified)", "test.target": "OVCAR-4 ovarian", "TGI": "> 100 µM"}
{"compound": "N#CC1C(=O)NC2=C(CCOc3c2ccc2ccccc32)C1c1ccc(F)cc1 (stereo unspecified)", "test.target": "OVCAR-4 ovarian", "TGI": "> 100 µM"}
{"compound": "O=C1C(Cl)C(c2cccc(Br)c2)N1c1c(O)c(Cl)cc(Br)c1Cl (stereo unspecified)", "test.target": "OVCAR-4 ovarian", "TGI": "24.7 µM"}
{"compound": "Cc1ccc(-c2n[nH]c(=O)n2N2C(=O)C=CC2=O)cc1", "test.target": "OVCAR-4 ovarian", "TGI": "> 100 µM"}
{"compound": "CCOC(=O)NC(C(C(=O)OCC)C(=O)OCC)(C(F)(F)F)C(F)(F)F", "test.target": "OVCAR-4 ovarian", "TGI": "> 100 µM"}

====

- System: SNB-19 CNS
- method.notes: NCI tumour cell line growth inhibition, 48 h; in the data active means GI50 below about 0.43 µM; inactive means the rest
Classes used: active, inactive

{"compound": "O=C(Nc1ccc(Cl)cc1F)c1cc(Cl)ccc1O", "test.target": "SNB-19 CNS", "class.assignment": "active"}
{"compound": "COc1cc(CCNc2nc3cc(N)cc(N)c3nc2-c2ccccc2)cc(OC)c1", "test.target": "SNB-19 CNS", "class.assignment": "inactive"}
{"compound": "COc1cc(/C=N/Nc2ncnc3c2cnn3Cc2ccccc2)ccc1O", "test.target": "SNB-19 CNS", "class.assignment": "inactive"}
{"compound": "CCCC(=O)Nc1ncnc2c1ncn2C1OC2COP(=O)(O)OC2C1OC(=O)CCC (stereo not given)", "test.target": "SNB-19 CNS", "class.assignment": "inactive"}
{"compound": "Cc1nn(-c2ccccc2)c(C)c1/C=N/N1CCN(Cc2ccccc2)CC1", "test.target": "SNB-19 CNS", "class.assignment": "inactive"}
{"compound": "CCNC(=O)c1ccc2c(c1)nc(-c1ccc(Cl)cc1)n2-c1cc(C(C)(C)C)[nH]n1", "test.target": "SNB-19 CNS", "class.assignment": "inactive"}
{"compound": "Cc1[nH]c2ccccc2c1C1=CC(=O)C=CC1=O", "test.target": "SNB-19 CNS", "class.assignment": "inactive"}
{"compound": "C[CH2][Sn]([Cl])([CH2]C)[CH2]C", "test.target": "SNB-19 CNS", "class.assignment": "inactive"}
{"compound": "CCc1cccc(CC)c1NC(=O)c1ccn2c1CCc1cnc(Nc3ccc(N4CCN(C)CC4)cc3OC)nc1-2", "test.target": "SNB-19 CNS", "class.assignment": "inactive"}
{"compound": "COc1cc(C2C(C(=O)OCc3ccccc3)=C(C)NC(C)=C2C(=O)OCc2ccccc2)cc(OC)c1OC", "test.target": "SNB-19 CNS", "class.assignment": "inactive"}
